Would you kindly list pKi for each of these compounds?
# Target: human CRTH2 (Homo sapiens)
# Sequence (Q9Y5Y4 whole entry): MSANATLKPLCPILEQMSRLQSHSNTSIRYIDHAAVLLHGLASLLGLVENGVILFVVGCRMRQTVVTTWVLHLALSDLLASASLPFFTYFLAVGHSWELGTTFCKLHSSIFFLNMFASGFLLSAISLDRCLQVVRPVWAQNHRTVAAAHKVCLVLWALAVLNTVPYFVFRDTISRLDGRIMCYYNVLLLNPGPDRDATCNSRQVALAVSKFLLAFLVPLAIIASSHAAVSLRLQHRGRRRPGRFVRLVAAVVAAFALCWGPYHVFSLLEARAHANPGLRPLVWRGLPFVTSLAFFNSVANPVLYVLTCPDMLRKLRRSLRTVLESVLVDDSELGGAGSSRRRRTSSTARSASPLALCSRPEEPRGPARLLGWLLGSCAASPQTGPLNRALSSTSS
pKi: −log10 of the molar value.

Example results:
>>> result("C=CCOC(=O)NCCc1nc2cc(NS(=O)(=O)c3ccc(F)cc3)ccc2n1CC(=O)O")
"> 5.00"
>>> result("CCCCc1nc2cc(N(C)S(=O)(=O)c3ccc(F)cc3)ccc2n1CC(=O)O")
"> 6.00"
>>> result("CCCc1nc2cc(N(Cc3ccccc3)C(=O)C3CCCC3)ccc2n1CC(=O)O")
"> 5.00"

Lab note: measured pKi of `CCCc1nc2cc(N(Cc3ccc(F)cc3)S(=O)(=O)c3ccc(F)cc3)ccc2n1CC(=O)O` was > 7.00
